- protocolDescription: Effect on rate of GTP hydrolysis in the GTP binding protein ras p21
# krel per entry
A bare number is all that is needed in reply.

# entrySmiles, krel
measured = [
    ("CCC[C@H](N)C(=O)O", 0.98),
    ("C[C@H](N)C(=O)O", 1.04),
    ("CNC[C@H](N)C(=O)O", 1),
]

Please turn your attention to the following entry.
// sample `CC(C)[C@H](N)C(=O)O` , its krel was 1.02
